Let's go through some recorded IC50 values for ROCK2 (human) together.

# compound, IC50
rows = [
    ("NC(CC(=O)NCc1ccccn1)c1ccc(C(=O)Nc2ccncc2)cc1 (stereo unspecified)", "50 to 500 nM"),
    ("CN(CC(N)c1ccc(C(=O)Nc2ccncc2)cc1)C(=O)Cc1cccc(Br)c1 (stereo unspecified)", "500 to 5000 nM"),
    ("NC(CC(=O)NCc1cccs1)c1ccc(C(=O)Nc2ccncc2)cc1 (stereo unspecified)", "50 to 500 nM"),
    ("CN(CC(N)c1ccc(C(=O)Nc2ccncc2)cc1)C(=O)C(C)(C)c1ccc(F)cc1 (stereo unspecified)", "500 to 5000 nM"),
    ("Cc1cccc(CNC(=O)CC(N)c2ccc(C(=O)Nc3ccncc3)cc2)c1 (stereo unspecified)", "50 to 500 nM"),
    ("NC(CNC(=O)Cc1ccc(F)cc1)c1ccc(C(=O)Nc2ccncc2)cc1 (stereo unspecified)", "50 to 500 nM"),
    ("CC(C)(C)NC(=O)NCC(N)c1ccc(C(=O)Nc2ccncc2)cc1 (stereo unspecified)", "500 to 5000 nM"),
    ("COc1ccc(NC(=S)NCC(N)c2ccc(C(=O)Nc3ccncc3)cc2)cc1 (stereo unspecified)", "500 to 5000 nM"),
    ("NC(CNC(=O)C1CCC1)c1ccc(C(=O)Nc2ccncc2)cc1 (stereo unspecified)", "500 to 5000 nM"),
    ("CC(NC(=O)CC(N)c1ccc(C(=O)Nc2ccncc2)cc1)c1cccc2ccccc12 (stereo unspecified)", "50 to 500 nM"),
    ("NC(CC(=O)NC1c2ccccc2-c2ccccc21)c1ccc(C(=O)Nc2ccncc2)cc1 (stereo unspecified)", "50 to 500 nM"),
]
